// reported Kd for each item listed
Molecular target: T1, human FcRH5 protein fragment (soluble) (human, UniProt Q96RD9 16-851)
T1 construct: whole entry named; also called soluble human FcRH5; Human FcRH5 (BIACORE analyte)
T1 sequence: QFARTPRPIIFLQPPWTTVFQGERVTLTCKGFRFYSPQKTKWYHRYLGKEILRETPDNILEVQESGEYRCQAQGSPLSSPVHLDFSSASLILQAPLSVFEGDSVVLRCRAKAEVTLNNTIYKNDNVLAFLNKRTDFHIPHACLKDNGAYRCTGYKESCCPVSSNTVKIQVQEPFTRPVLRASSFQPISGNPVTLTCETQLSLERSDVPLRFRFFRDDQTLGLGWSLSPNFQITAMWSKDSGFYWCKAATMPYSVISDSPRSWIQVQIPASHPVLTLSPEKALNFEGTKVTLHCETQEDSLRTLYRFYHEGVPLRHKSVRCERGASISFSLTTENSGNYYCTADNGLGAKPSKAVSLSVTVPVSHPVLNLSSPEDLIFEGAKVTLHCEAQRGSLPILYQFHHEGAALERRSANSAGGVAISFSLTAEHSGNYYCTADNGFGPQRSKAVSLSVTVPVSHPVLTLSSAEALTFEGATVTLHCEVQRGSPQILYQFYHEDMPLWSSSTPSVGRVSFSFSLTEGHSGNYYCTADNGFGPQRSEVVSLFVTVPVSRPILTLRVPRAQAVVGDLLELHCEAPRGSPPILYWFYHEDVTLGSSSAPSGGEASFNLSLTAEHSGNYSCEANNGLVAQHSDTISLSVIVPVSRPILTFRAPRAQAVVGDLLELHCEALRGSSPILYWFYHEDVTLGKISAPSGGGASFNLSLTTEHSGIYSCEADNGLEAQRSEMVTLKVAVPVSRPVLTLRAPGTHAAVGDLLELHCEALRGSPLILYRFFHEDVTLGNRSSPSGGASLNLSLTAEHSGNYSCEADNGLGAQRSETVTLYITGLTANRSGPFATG
Assay: SPR, hIgG capture, screening
Answer as a quantity: numeral, then unit.

Task item: Tell me the measured Kd of hu1G7.v1 heavy chain W52Y with light chain of hu1G7.v1.3 (antibody, V domains shown, human IgG) VH: EVQLVESGPGLVKPSETLSLTCTVSGFSLTRFGVHWVRQPPGKGLEWLGVIYRGGSTDYNAAFMSRLTISKDNSKNQVSLKLSSVTAADTAVYYCSNHYYGSSDYALDNWGQGTLVTVSS VL: DIQMTQSPSSLSASVGDRVTITCKASQDVRNIVVWFQQKPGKAPKLLIYSGSYRYSGVPSRFSGSGSGTDFTLTISSLQPEDFATYYCQQQYSPPYTFGQGTKVEIK , please.
Reply: 640 nM

Task item: What about this binder? hu1G7.v1 heavy chain M64V with light chain of hu1G7.v1.5 (antibody, V domains shown, human IgG) VH: EVQLVESGPGLVKPSETLSLTCTVSGFSLTRFGVHWVRQPPGKGLEWLGVIWRGGSTDYNAAFVSRLTISKDNSKNQVSLKLSSVTAADTAVYYCSNHYYGSSDYALDNWGQGTLVTVSS VL: DIQMTQSPSSLSASVGDRVTITCKASQDVSNIVVWFQQKPGKSPKLLIYSGYYRYTGVPSRFSGSGSGTDFTLTISSLQPEDFATYYCQQQFQPPYTFGQGTKVEIK
Reply: 2.5 nM
